Measured IC50, viability of SJSA-1 cells values are reported for all entries that follow.
target: MDM2 in MDM2 overexpressing SJSA-1 cells (UniProt Q00987 1-491, limits assumed); test: cell-based or functional assay
Sequence (Q00987 whole entry): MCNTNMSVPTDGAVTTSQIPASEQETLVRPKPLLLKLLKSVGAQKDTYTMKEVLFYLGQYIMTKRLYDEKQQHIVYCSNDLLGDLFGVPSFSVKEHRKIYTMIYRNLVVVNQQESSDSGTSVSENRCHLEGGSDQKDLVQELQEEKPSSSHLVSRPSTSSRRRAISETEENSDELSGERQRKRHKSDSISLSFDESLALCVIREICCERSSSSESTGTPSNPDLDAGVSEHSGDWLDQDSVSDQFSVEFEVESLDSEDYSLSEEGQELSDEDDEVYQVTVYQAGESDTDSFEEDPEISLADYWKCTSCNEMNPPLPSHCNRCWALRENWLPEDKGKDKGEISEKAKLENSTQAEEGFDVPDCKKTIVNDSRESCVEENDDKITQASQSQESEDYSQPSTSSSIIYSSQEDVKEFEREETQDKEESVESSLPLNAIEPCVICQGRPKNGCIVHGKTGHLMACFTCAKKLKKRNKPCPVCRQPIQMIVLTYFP
*1 amine or outer side, *2 acyl side, *3 side chain or, on linkers, in order; H or OH if unused. Bridges are numbered along the chain shown (N, C = ends). Where no end group is shown, it is not given here. [ ]: non-standard residue; d: D form. Hexa = hexylalanine = (2S)-2-aminononanoic acid, CCCCCCC[C@H](N[*:1])C(=O)[*:2]; perfluorosulfone = not defined here; R8 = C=CCCCCCC[C@@](C)(N)C(=O)O; F2f = difluoro-L-phenylalanine; Cba = N[C@@H](CC1CCC1)C(=O)O; S5 = C=CCCC[C@](C)(N)C(=O)O; Napa = not defined here; Dap = NC[C@H](N)C(=O)O

{"columns": ["binder", "censoringOperator", "IC50, viability of SJSA-1 cells [µM]"],
 "data": [
  ["Ac-LT[F2f]KEYWAE[Cba]KSAA-NH2 (linker 4-11 via perfluorosulfone; reading uncertain; also: printed as LT(F2f)KEYWAE(Cba)KSAA) [peptide 11b-S4]", ">", 20],
  ["Ac-LT[F2f][R8]EY[Hexa]AQ[Cba][S5]SAA-NH2 (staple 4-11) [peptide 10b-M]", "=", 2.4],
  ["Ac-LT[F2f][R8]EY[Hexa]AQ[Cba][S5]SAA-NH2 (bridges not given here) [peptide 10b-M unclosed]", "=", 17],
  ["Ac-LT[F2f][Dap]EYWAQ[Cba][Dap]SAA-NH2 (linker 4-11 via perfluoroaryl sulfone, Macrocyclic) [peptide 11b-S1]", "=", 7.8],
  ["Ac-LT[F2f]KEY[Napa]AQ[Cba]KSAA-NH2 (linker 4-11 via perfluorosulfone; reading uncertain) [27b-S4]", ">", 20],
  ["Ac-LT[F2f][R8]EY[Napa]AE[Cba]KSAA-NH2 (staple (positions not given here); not fully specified (residue 11, bridges); reading uncertain) [peptide 27b-M]", "=", 2.7],
  ["LTF[R8]EYWAE[Cba][S5]SAA-NH2 (staple 4-11; N-terminus assumed; SMILES CC(C)C[C@H](N)C(=O)N[C@H](C(=O)N[C@@H](Cc1ccccc1)C(=O)N[C@]1(C)CCCCCCC=CCCC[C@@](C)(C(=O)N[C@@H](CO)C(=O)N[C@@H](C)C(=O)N[C@@H](C)C(N)=O)NC(=O)[C@H](CC2CCC2)NC(=O)[C@H](CCC(=O)O)NC(=O)[C@H](C)NC(=O)[C@H](Cc2c[nH]c3ccccc23)NC(=O)[C@H](Cc2ccc(O)cc2)NC(=O)[C@H](CCC(=O)O)NC1=O)[C@@H](C)O) [peptide ATSP-7040]", "=", 3]
]}
